- test system: Human GPR120 short form (Homo sapiens)
- Construct: expressed in transfected cells
- Sequence (Q5NUL3 whole entry): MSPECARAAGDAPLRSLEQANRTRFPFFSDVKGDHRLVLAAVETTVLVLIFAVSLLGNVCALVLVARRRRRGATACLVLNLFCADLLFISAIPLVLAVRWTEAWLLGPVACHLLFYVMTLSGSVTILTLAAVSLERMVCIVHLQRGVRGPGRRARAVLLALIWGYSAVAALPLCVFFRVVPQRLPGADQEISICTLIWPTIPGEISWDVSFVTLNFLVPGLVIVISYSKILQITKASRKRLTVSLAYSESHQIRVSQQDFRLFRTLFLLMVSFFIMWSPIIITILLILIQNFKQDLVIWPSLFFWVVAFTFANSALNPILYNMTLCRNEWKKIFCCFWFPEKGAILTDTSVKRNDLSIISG
- experiment notes: Human GPR120 calcium flux assay, Procedure Calcium B (4200 cells/well)
- Assay type: cell-based
pEC50: −log10 of the molar value.
Binary classification by pEC50, with 6 as an inclusive lower bound for t; all other cases are f.

| molecule | discrete label |
| --- | --- |
| Cc1ccc(CC2=C(COc3ccc(CCC(=O)O)c(C(F)(F)F)c3)CCC2)cc1 [Compound 345] | f |
| Cc1cc(CCC(=O)O)ccc1OCC1=C(c2ccc(F)cc2)CCC1 [Compound 42] | t |
| COc1ncc(C2=C(COc3ccc(CCC(=O)O)c(C)c3C)CCC2)cc1F [Compound 223] | t |
| O=C(O)CCc1ccc(OCC2=C(C3CCCC3)CCCC2)cc1Cl [Compound 594] | t |
| Cc1c(CCC(=O)O)ccc(OCC2=C(c3ccc(Br)cc3)CCCC2)c1C [Compound 481] | t |
| Cc1c(CCC(=O)O)cc(I)c(OCC2=C(c3ccc(I)cc3)CCCC2)c1C [Compound 524] | f |
| Cc1cc(CCC(=O)O)ccc1OCC1=C(c2cncs2)CCC(F)(F)C1 [Compound 548] | t |
| O=C(O)CCc1cc(F)c(OCC2=C(C3CCCC3)CCC2)cc1Cl [Compound 450] | t |
| Cc1ccc(C2=C(COc3ccc(CCC(=O)O)c(C(F)(F)F)c3)CCC2)cc1F [Compound 282] | t |
| Cc1c(CCC(=O)O)ccc(OCC2=C(c3cccs3)CC(F)(F)C2)c1C [Compound 200] | t |
| Cc1c(CCC(=O)O)ccc(OCC2=C(c3ccc(Cl)cc3)CCCC2)c1C [Compound 474] | t |
| CC1CCC(c2ccc(Cl)cc2)=C1COc1ccc(CCC(=O)O)cc1 (stereo not shown) [Compound 332] | t |
| Cc1cccc(CC2=C(COc3ccc(CCC(=O)O)c(C(F)(F)F)c3)CCC2)c1 [Compound 405] | f |
| Cc1cc(CCC(=O)O)ccc1OCC1=C(c2ccco2)CCC1 [Compound 208] | t |
| Cc1ccc(C2=C(COc3c(F)cc(CCC(=O)O)cc3F)CC(F)(F)CC2)s1 [Compound 562] | t |
| Cc1cc(OCC2=C(c3ccc(Cl)cc3)CCC2)cc(C)c1CCC(=O)O [Compound 119] | t |
| O=C(O)CCc1ccc(OCC2=C(c3ccc(F)cc3)CC(F)(F)C2)c(Cl)c1 [Compound 203] | t |
| Cc1c(CCC(=O)O)ccc(OCC2=C(c3ccc(Cl)c(F)c3)CCC2)c1C [Compound 157] | t |
| Cc1cc(OCC2=C(c3ccc(Cl)cc3)CCC2)c(F)cc1CCC(=O)O [Compound 289] | t |
| Cc1ccc(C2=C(COc3ccc(CCC(=O)O)c(Cl)c3)CCC2)cc1 [Compound 310] | t |
| CC1(C)CCC(C2CCCC2)=C(COc2ccc(CCC(=O)O)c(C(F)(F)F)c2)C1 [Compound 604] | f |

====

pEC50 by entry:
- test system: Human GPR120 short form (Homo sapiens)
- Construct: expressed in transfected cells
- experiment notes: Human GPR120 calcium flux assay, Procedure Calcium B (4200 cells/well)
- Format: cell-based
pEC50: −log10 of the molar value.
metric name: pEC50

| compound | test system | metric name | comparator | endpoint result |
| --- | --- | --- | --- | --- |
| Cc1cc(CCC(=O)O)ccc1OCC1=C(c2cccc(F)c2)CC(F)(F)C1 | Human GPR120 short form (Homo sapiens) | pEC50 | = | 7.57 |
| Cc1cccc(CC2=C(COc3ccc(CCC(=O)O)c(Cl)c3)CCC2)c1 | Human GPR120 short form (Homo sapiens) | pEC50 | < | 5.30 |
| CC(C)CC1=C(COc2ccc(CCC(=O)O)c(C(F)(F)F)c2)CCC1 | Human GPR120 short form (Homo sapiens) | pEC50 | = | 6.15 |
| O=C(O)CCc1ccc(OCC2=C(c3ccc(Cl)cc3)CCC2)c(Cl)c1Cl | Human GPR120 short form (Homo sapiens) | pEC50 | = | 7.36 |
| Cc1cc(CC(C)C(=O)O)ccc1OCC1=C(c2ccc(Cl)cc2)CCC1 (centres unmarked) | Human GPR120 short form (Homo sapiens) | pEC50 | = | 6.71 |
| Cc1c(CCC(=O)O)ccc(OCC2=C(c3ccc(Cl)c(F)c3)CC(F)(F)C2)c1C | Human GPR120 short form (Homo sapiens) | pEC50 | = | 6.97 |
| O=C(O)CCc1cc(F)c(OCC2=C(c3ccc(F)cc3F)CCC(F)(F)C2)c(F)c1 | Human GPR120 short form (Homo sapiens) | pEC50 | = | 6.68 |
| Cc1c(CCC(=O)O)ccc(OCC2=C(c3ccc(Cl)cc3)CCCCC2)c1C | Human GPR120 short form (Homo sapiens) | pEC50 | = | 6.76 |
| O=C(O)CCc1ccc(OCC2=C(c3ccc(Cl)cc3)CCC2)cc1C(F)(F)F | Human GPR120 short form (Homo sapiens) | pEC50 | = | 6.67 |
| CCc1ccc(C2=C(COc3cc(C)c(CCC(=O)O)cc3F)CCC2)cc1 | Human GPR120 short form (Homo sapiens) | pEC50 | = | 6.38 |
| Cc1cc(OCC2=C(Cc3ccc(Cl)cc3)CCC2)c(F)cc1CCC(=O)O | Human GPR120 short form (Homo sapiens) | pEC50 | < | 5.30 |

====

- test system: Human GPR120 short form (Homo sapiens)
- Construct: expressed in transfected cells
- experiment notes: Human GPR120 calcium flux assay, Procedure Calcium A (2500 cells/well)
- Type: cell-based

| compound | test system | EC50 (nM) |
| --- | --- | --- |
| COc1cccc(C2=C(COc3ccc(CCC(=O)O)c(C)c3C)CCC2)c1 [Compound 141] | Human GPR120 short form (Homo sapiens) | 1060 |
| Cc1ccc(C2=C(COc3ccc(CCC(=O)O)cc3C)CCC2)cn1 [Compound 102] | Human GPR120 short form (Homo sapiens) | 781 |
| Cc1ccc(C2=C(COc3ccc(CCC(=O)O)cc3C)CCCC2)cn1 [Compound 477] | Human GPR120 short form (Homo sapiens) | 1180 |
| Cc1ccc(C2=C(COc3ccc(CCC(=O)O)c(C)c3C)CCC2)cc1[N+](=O)[O-] [Compound 115] | Human GPR120 short form (Homo sapiens) | 1120 |

====

pEC50 by entry:
- test system: Human GPR120 short form (Homo sapiens)
- Construct: expressed in transfected cells
- experiment notes: Human GPR120 calcium flux assay, Procedure Calcium B (4200 cells/well)
- Format: cell-based
pEC50: −log10 of the molar value.

| compound | comparator | pEC50 |
| --- | --- | --- |
| O=C(O)CCc1ccc(OCC2=C(C3CCC4CC43)CCC2)cc1C(F)(F)F (stereo not shown) [Compound 456] | = | 6.03 |
| Cc1cc(CCC(=O)O)ccc1OCC1=C(c2cccs2)CC(F)(F)C1 [Compound 202] | = | 6.94 |
| Cc1c(CCC(=O)O)ccc(OCC2=C(c3cncs3)CCC2)c1C [Compound 88] | = | 6.63 |
| Cc1c(CCC(=O)O)ccc(OCC2=C(c3cnn(C)c3)CCC(F)(F)C2)c1C [Compound 545] | = | 6.01 |
| O=C(O)CCc1ccc(OCC2=C(c3ccccc3Cl)CCC2)cc1Cl [Compound 295] | = | 5.78 |
| CC1CCC(c2ccc(Cl)cc2)=C1COc1ccc(CCC(=O)O)c(C(F)(F)F)c1 (stereo not shown) [Compound 336] | = | 6.25 |
| Cc1ccc(C2=C(COc3ccc(CCC(=O)O)cc3Br)CCC2)cc1 [Compound 169] | = | 7.31 |
| Cc1c(CCC(=O)O)ccc(OCC2=C(c3ccc(Cl)cc3)CC(F)(F)CC2)c1C [Compound 568] | = | 6.69 |
| CCC(C)C1=C(COc2ccc(CCC(=O)O)c(C(F)(F)F)c2)CCC1 (stereo not shown) [Compound 388] | = | 5.79 |
| Cc1c(CCC(=O)O)ccc(OCC2=C(c3ccc(Cl)cc3)CCC(F)(F)CC2)c1C [Compound 616] | = | 6.78 |
| Cc1c(CCC(=O)O)ccc(OCC2=C(c3ccc(Cl)cc3)CCC(C)(C)C2)c1C [Compound 541] | = | 5.82 |
| Cc1cc(CCC(=O)O)ccc1OCC1=C(c2ccc(Cl)s2)CCC(F)(F)C1 [Compound 542] | = | 7.03 |
| [2H]C(C(=O)O)C([2H])c1ccc(OCC2=C(c3ccc(Cl)cc3)CCC2)c(C)c1 (stereo not shown) [Compound 126-D] | = | 8.00 |
| Cc1c(CCC(=O)O)ccc(OCC2=C(c3ccccc3)CCCC2)c1C [Compound 472] | = | 7.49 |
| Cc1c(CCC(=O)O)ccc(OCC2=C(c3cccc(Cl)c3)CCCC2)c1C [Compound 509] | = | 6.38 |
| Cc1cc(CCC(=O)O)ccc1OCC1=C(c2ccc(F)cc2)CC(F)(F)C1 [Compound 180] | = | 7.59 |
| COC1CCC(c2ccc(C)cc2)=C(COc2ccc(CCC(=O)O)cc2)C1 (stereo not shown) [Compound 574] | = | 5.67 |
| O=C(O)CCc1ccc(OCC2=C(c3cccc(F)c3)CCC2)cc1C(F)(F)F [Compound 263] | = | 6.58 |
| O=C(O)CCc1ccc(OCC2=C(Cc3ccccc3)CCC2)cc1Cl [Compound 329] | = | 5.80 |
| Cc1cc(CCC(=O)O)cc(Br)c1OCC1=C(c2ccc(Cl)cc2)CCC1 [Compound 30] | = | 6.34 |
| CC(C)CC1=C(COc2ccc(CCC(=O)O)c(Cl)c2)CCCC1 [Compound 580] | = | 5.88 |
| O=C(O)CCc1cc(Cl)c(OCC2=C(c3ccc(F)cc3)CC(F)(F)C2)c(Cl)c1 [Compound 205] | = | 6.33 |
| O=C(O)CCc1ccc(OCC2=C(c3ccc(F)cc3)CCC2)c(F)c1 [Compound 49] | = | 6.87 |
| Cc1cc(OCC2=C(C3CCCC3)CCC2)ccc1CCC(=O)O [Compound 422] | = | 6.75 |
| O=C(O)CCc1ccc(OCC2=C(C3CCCC3)CCC(F)(F)CC2)cc1 [Compound 611] | = | 6.51 |
| COc1ccc(C2=C(COc3ccc(CCC(=O)O)c(Cl)c3)CCC2)cc1 [Compound 288] | = | 6.07 |
| C=C(Br)c1cc(OCC2=C(C3CCCC3)CCC2)ccc1CCC(=O)O [Compound 448] | < | 5.30 |
| Cc1ccc(C2=C(COc3c(F)cc(CCC(=O)O)cc3F)CCC2)o1 [Compound 212] | < | 5.30 |
| O=C(O)CCc1ccc(OCC2=C(C3CC4CCC3C4)CCC2)cc1C(F)(F)F (stereo not shown) [Compound 390] | = | 5.92 |
| Cc1c(CCC(=O)O)ccc(OCC2=C(c3ncccn3)CCCC2)c1C [Compound 475] | = | 5.64 |
| CCc1cc(OCC2=C(C3CCCC3)CCC2)ccc1CCC(=O)O [Compound 423] | = | 6.57 |
| O=C(O)CCc1cc(F)c(OCC2=C(c3ccc(F)cc3)CC(F)(F)C2)c(F)c1 [Compound 183] | = | 7.29 |
| Cc1ccc(C2=C(COc3ccc(CCC(=O)O)c(C)c3C)CCC2)cc1C [Compound 106] | = | 6.25 |
| Cc1ccc(C2=C(COc3ccc(CCC(=O)O)c(C)c3C)CCC2)c(C)c1 [Compound 82] | = | 6.62 |
